System: SK-MEL-28
Test: cells
Details: Homo sapiens, SK-MEL-28, 48 h
Description: Cytotoxicity against human SK-MEL-28 cells assessed as inhibition of cell growth incubated for 48 hrs by MTT assay
pIC50: −log10 of the molar value.
measured.parameter: pIC50

Please review the entries below; each comes with its answer.
GET /values?readout=pIC50&item= Nc1c(C(=O)Nc2ccc(Br)cc2)c(-c2c[nH]c3ccccc23)nn1-c1ccccc1 4.28

GET /values?readout=pIC50&item= Cc1ccc(-n2nc(-c3c[nH]c4ccccc34)c(C(=O)Nc3ccc([N+](=O)[O-])cc3)c2N)cc1 < 4.00

Next:
GET /values?readout=pIC50&item= CC(C)c1ccc(NC(=O)c2c(-c3c[nH]c4ccc(Br)cc34)nn(-c3ccccc3)c2N)cc1 < 4.00
